- system: recombinant soluble homotrimeric HA of A/Netherlands/219/03 (H7N7) (Influenza A virus A/Netherlands/219/03 (H7N7))
- experiment.summary: HA microarray, BCC supernatant
- test.settings: remark: other sources report otherwise
measured.quantity: Trimeric HA Binding RLU (RLU)
Give just the number in RLU; leave the unit off.

binder	measured.quantity	observed.result
TCN-538 (3206_O17) (antibody, V domains shown) VH: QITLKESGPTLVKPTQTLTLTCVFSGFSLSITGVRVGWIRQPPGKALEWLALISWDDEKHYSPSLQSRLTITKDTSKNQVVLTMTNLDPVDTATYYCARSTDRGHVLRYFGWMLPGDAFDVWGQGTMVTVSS VL: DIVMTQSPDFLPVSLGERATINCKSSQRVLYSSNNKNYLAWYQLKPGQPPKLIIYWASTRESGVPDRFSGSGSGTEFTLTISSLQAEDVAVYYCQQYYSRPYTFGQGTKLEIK	Trimeric HA Binding RLU	6530

Problem: Which Trimeric HA Binding RLU value belongs to TCN-557 (5081_A04) (antibody, V domains shown) VH: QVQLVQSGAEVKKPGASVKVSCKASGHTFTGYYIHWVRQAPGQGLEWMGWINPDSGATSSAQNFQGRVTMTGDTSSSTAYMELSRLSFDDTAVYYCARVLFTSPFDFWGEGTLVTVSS VL: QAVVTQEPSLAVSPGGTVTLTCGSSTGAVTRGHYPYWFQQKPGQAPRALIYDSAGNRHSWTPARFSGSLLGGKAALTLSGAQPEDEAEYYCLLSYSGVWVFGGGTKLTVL ?
Solution: 6780
